The measurements presented in this section are drawn from patent US20240116922A1.

# experiment: Kinetic solubility assay (CLND), pH 6.8
# Format: physicochemical
# setup-conditions: aqueous buffer, kinetic from dmso stock; potassium phosphate buffer pH 6.8, 2% DMSO, 24 hours at ambient temperature
assay-endpoint: solubility kinetic at 24 h (µg/mL)
Please respond with the number in µg/mL and leave the unit unwritten.

Reference set, count: 2
compound="CC(C)Oc1nc2nc(C34COC(C)(C3)C4)cn2cc1C(=O)Nc1cccn([C@H]2CC2(C)C)c1=O (single isomer, unassigned)" unit_descriptor=µg/mL recorded_value=45.7
compound="CC(C)Oc1cc2nc([C@@]34CC[C@@](C)(C3)OC4)cn2cc1C(=O)Nc1cccn(C2C[C@H]2C)c1=O (some centres unmarked)" unit_descriptor=µg/mL recorded_value=89.7

*Q* For the compound shown here, O=C(Nc1cccn(C2CC2F)c1=O)c1cn2cc([C@]34CO[C@](CF)(C3)C4)nc2nc1OC1CCC1 (mixture of isomers) , give the reported solubility kinetic at 24 h.
*A* 44.4

*Q* Request: CC(C)Oc1cc2nc([C@@]34CC[C@@](C)(C3)OC4)cn2cc1C(=O)Nc1cccn([C@H]2C[C@@H]2C)c1=O (single isomer, unassigned)
*A* 60.6

*Q* Another compound: CC(C)Oc1c(C(=O)Nc2cccn([C@H]3C[C@H]3F)c2=O)cn2cc([C@@]34CC[C@@](C)(C3)OC4)nc2c1F (single isomer, unassigned)
*A* 39.9

*Q* Again, but for CC(C)Oc1cc2nc(C34COC(C)(C3)C4)cn2cc1C(=O)Nc1cccc(C(F)F)n1 [Comparator 1A, reference compound]
*A* 2.1

*Q* For CC(C)Oc1nc2nc([C@@]34CC[C@@](C)(C3)OC4)cn2cc1C(=O)Nc1cccn([C@H]2C[C@@H]2C)c1=O (single isomer, unassigned) then?
*A* 34.5

*Q* Similarly, "CC(C)Oc1nc2nc(C34CCC(C)(CC3)OC4)cn2cc1C(=O)Nc1cccn(C2CC2)c1=O" ?
*A* 7.2
